Target: HA-UCHL1 (Homo sapiens)
Sequence (P09936 1-223): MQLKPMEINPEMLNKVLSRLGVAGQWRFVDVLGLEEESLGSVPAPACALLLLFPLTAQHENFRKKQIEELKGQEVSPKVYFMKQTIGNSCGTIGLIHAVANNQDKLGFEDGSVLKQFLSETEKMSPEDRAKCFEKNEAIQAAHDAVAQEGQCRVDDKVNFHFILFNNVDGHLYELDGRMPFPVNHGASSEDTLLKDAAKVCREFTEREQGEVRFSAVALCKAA
Assay: AlphaLISA DUB assay miniaturized to 1536-well format
Assay type: biochemical

{"MOLECULE": "CC(=O)Oc1c2c(c(CC=C(C)C)c3c1C(=O)C1=C[C@@H]4CC5C(C)(C)OC(C/C=C(\\C)C(=O)O)(C4=O)[C@@]15O3)OC(C)(CCC=C(C)C)C=C2 (stereo partly shown)", "TARGET SYSTEM": "HA-UCHL1 (Homo sapiens)", "UNIT STRING": "µM", "IC50": 30.6}
{"MOLECULE": "CC1=C(O)C(=O)C=C2C1=CC=C1[C@@]2(C)CC[C@@]2(C)[C@@H]3C[C@](C)(C(=O)O)CC[C@]3(C)CC[C@]12C", "TARGET SYSTEM": "HA-UCHL1 (Homo sapiens)", "UNIT STRING": "µM", "IC50": 4.46}
{"MOLECULE": "O=c1c2cc(O)c(O)cc2oc2cc(O)c([C@@H]3O[C@H](CO)[C@@H](O)[C@H](O)[C@H]3O)c(O)c12", "TARGET SYSTEM": "HA-UCHL1 (Homo sapiens)", "UNIT STRING": "µM", "IC50": 1.12}
{"MOLECULE": "CO[C@H]1/C=C/O[C@@]2(C)Oc3c(C)c(O)c4c(O)c(c(/C=N/N5CCN(C)CC5)c(O)c4c3C2=O)NC(=O)/C(C)=C\\C=C\\[C@H](C)[C@H](O)[C@@H](C)[C@@H](O)[C@@H](C)[C@H](OC(C)=O)[C@@H]1C [rifampicin, reference compound]", "TARGET SYSTEM": "HA-UCHL1 (Homo sapiens)", "UNIT STRING": "µM", "IC50": 38.5}
